Target: T1, FOXL2-DBD (Homo sapiens, UniProt P58012 52-148)
T1 sequence: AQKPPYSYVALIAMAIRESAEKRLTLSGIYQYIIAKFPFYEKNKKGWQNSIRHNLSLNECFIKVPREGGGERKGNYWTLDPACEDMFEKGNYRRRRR
Assay: ITC; 1:1 stoichiometry; 10 mM MgCl2, 298 K; ITC: 20 mM HEPES pH 7.5, 150 mM NaCl, 10 mM MgCl2, 298 K. EMSA: 2.5 uM DNA, 20 mM HEPES pH 7.5, 50 mM KCl, 10 mM MgCl2, 1 mM DTT, 10% glycerol, on ice 30 min; FOXA1 EMSA: 20 mM Tris-HCl pH 8.0, 0.1 mg/ml BSA, 50 uM ZnCl2, 100 mM KCl, 2 mM beta-mercaptoethanol, 10% glycerol (50 mM EDTA for Mg2+ depletion)
Conditions: protein: recombinant; tags: GST tag cleaved by TEV; blunt
measured-parameter: Kd (nM)
Form entry: value (nM) — number only.

Task item: Quick one: Kd for DBE2 DNA 16 bp (dsDNA) DNA 1: CAAAATGTAAACAAGT DNA 2: ACTTGTTTACATTTTG ?
Reply: 790
